# system: DLL4 (human, UniProt Q9NR61)
# Sequence (Q9NR61 27-524): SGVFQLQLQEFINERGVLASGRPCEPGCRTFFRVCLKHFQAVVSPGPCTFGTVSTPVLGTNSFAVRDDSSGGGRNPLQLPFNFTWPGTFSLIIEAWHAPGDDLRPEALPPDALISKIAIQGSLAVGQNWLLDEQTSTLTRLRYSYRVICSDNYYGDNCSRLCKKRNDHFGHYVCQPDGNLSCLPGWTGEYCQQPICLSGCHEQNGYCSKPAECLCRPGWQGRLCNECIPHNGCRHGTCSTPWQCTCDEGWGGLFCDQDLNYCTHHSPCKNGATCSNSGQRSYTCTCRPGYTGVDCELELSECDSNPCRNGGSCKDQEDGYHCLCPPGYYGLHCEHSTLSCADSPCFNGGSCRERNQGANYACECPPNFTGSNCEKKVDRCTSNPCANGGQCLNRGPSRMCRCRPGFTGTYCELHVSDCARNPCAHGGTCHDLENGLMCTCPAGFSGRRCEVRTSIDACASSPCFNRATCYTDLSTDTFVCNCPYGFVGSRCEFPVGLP
# assay.protocol: SPR
readout: pKd
Scale note: pKd = -log10(concentration in M).

Req: Could you share which pKd value was measured for AB015 (antibody) chain 1: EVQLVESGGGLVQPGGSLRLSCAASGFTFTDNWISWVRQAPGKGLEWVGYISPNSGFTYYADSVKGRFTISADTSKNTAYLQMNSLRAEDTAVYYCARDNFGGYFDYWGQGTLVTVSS chain 2: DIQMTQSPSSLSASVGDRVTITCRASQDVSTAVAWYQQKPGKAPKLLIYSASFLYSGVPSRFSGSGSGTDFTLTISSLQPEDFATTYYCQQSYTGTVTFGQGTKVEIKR ?
Resp: 9.38

Req: And the next one, DVD043 DLL4 arm (antibody, DVD-Ig inner) chain 1: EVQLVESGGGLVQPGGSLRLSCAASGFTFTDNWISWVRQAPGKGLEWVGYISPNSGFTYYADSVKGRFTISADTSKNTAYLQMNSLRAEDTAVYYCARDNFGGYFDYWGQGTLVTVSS chain 2: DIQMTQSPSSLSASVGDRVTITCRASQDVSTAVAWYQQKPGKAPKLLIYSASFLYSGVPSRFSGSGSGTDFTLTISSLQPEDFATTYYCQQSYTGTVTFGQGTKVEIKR ?
Resp: 8.63

Req: Likewise for DVD044 DLL4 arm (antibody, DVD-Ig outer) chain 1: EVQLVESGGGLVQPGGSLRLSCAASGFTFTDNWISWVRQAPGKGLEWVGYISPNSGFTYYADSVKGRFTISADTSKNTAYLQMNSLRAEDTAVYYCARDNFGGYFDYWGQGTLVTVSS chain 2: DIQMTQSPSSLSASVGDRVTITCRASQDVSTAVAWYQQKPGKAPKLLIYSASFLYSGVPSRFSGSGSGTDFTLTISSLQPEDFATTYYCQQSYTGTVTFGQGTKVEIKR ?
Resp: 9.46

meta.source: patent US9029508
